- method-description: chemical genetic growth profiling, strain panel (AID 1159580);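 also: tested at 20 µM; growth read once vehicle control cultures reached saturation at 30 °C; 1 = growth at the plate median or of vehicle wells; lower values mean less growth of the strain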
- recorded-conditions: S. cerevisiae deletion strains, growth OD, locus YOR083W, strain WHI5 (second series), stronger effect = lower value
The whole screen tested about 5,500 compounds, of which about 2,000 (36%) were called active. Inconclusive results (about 18%) are left out. This is one part of the list.
readout-type: normalized growth
Returns: the value as a bare number; no unit string appended.

Example entries begin here.
compound="Nc1nc(Cl)nc2c1ncn2[C@@H]1O[C@H](COP(=O)(O)OP(=O)(O)OP(=O)(O)O)[C@H](O)C1O (stereo partly specified)" observed=1.01
compound=N[C@@H](CCC(=O)N[C@H](CSN=O)C(=O)NCC(=O)O)C(=O)O observed=1.01
compound="NCC(CP(=O)(O)O)c1ccc(Cl)cc1 (stereo unspecified)" observed=0.98
compound=CN(C(=O)CCCOc1ccc2[nH]c(=O)ccc2c1)C1CCCCC1 observed=0.993
compound=Cc1cccc(C(=O)NCN2CCN(c3ccccc3C#N)CC2)c1 observed=0.982
compound=CCCn1c(C)c(C(=O)c2ccc3ccccc3c2)c2ccccc21 observed=0.995
compound="O=[N+]([O-])c1ccc(CSc2ncnc3c2ncn3[C@@H]2O[C@H](CO)[C@H](O)C2O)cc1 (stereo partly specified)" observed=0.992
compound=CCCCCCCC/C=C\CCCCCCCC(=O)NCCO observed=0.999

Given C[C@H](Cc1ccc(O)c(O)c1)[C@@H](C)Cc1ccc(O)c(O)c1 , state its recorded normalized growth.
0.925

Given CCCCCCCCCCCCCCCC(=O)NCCO , state its recorded normalized growth.
1.02

Given OCC1NCC(O)C(O)C1O (stereo unspecified) , state its recorded normalized growth.
1

----------
- method-description: chemical genetic growth profiling, strain panel (AID 1159580);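 also: tested at 20 µM; growth read once vehicle control cultures reached saturation at 30 °C; 1 = growth at the plate median or of vehicle wells; lower values mean less growth of the strain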
- recorded-conditions: S. cerevisiae deletion strains, growth OD, locus YOL147C, strain pex11, stronger effect = lower value
About 2,000 (36%) of roughly 5,500 compounds were called active. Not shown: some 18% with an inconclusive outcome. The list shows a part of the results.
Each entry below carries its recorded normalized growth.
Returns: the value as a bare number; no unit string appended.

Example entries begin here.
compound="NCC(CC(=O)O)c1ccc(Cl)s1 (stereo unspecified)" readout_type="normalized growth" observed=0.998
compound=CC(=O)NCCCCCC(=O)O readout_type="normalized growth" observed=0.988
compound=C[n+]1cccc(C(=O)[O-])c1 readout_type="normalized growth" observed=0.996
compound=COc1cc2c(c(OC)c1OC)-c1ccc(OC)c(=O)cc1[C@@H](NC(C)=O)CC2 readout_type="normalized growth" observed=1.04
compound=Cc1occc(=O)c1/C=C/O readout_type="normalized growth" observed=1.01

The record that follows has no normalized growth shown yet.
Given CC(=O)OCC1(C)CCC2(C)CCC3(C)C4=CCc5c(cc(OC(C)=O)c(OC(C)=O)c5C)C4(C)CCC3(C)C2C1 (stereo unspecified) , state its recorded normalized growth.
0.993

----------
- method-description: chemical genetic growth profiling, strain panel (AID 1159580);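 also: tested at 20 µM; growth read once vehicle control cultures reached saturation at 30 °C; 1 = growth at the plate median or of vehicle wells; lower values mean less growth of the strain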
- recorded-conditions: S. cerevisiae deletion strains, growth OD, locus YNR049C, strain mso1, stronger effect = lower value
The campaign covered roughly 5,500 compounds. About 2,000 (36%) were called active. About 18% were inconclusive and are not listed. The list shows a part of the results.
Each entry below carries its recorded normalized growth.
Returns: the value as a bare number; no unit string appended.

Example entries begin here.
compound="Nc1ncnc2c1ncn2C1O[C@H](COP(=O)(O)O)[C@@H](O)[C@H]1O (stereo partly specified)" observed=0.994
compound="O=C1O[C@H](C(O)CO)C(O)=C1O (stereo partly specified)" observed=0.986
compound="Nc1ncnc2c1ncn2C1C[C@H](O)[C@@H](CO)O1 (stereo partly specified)" observed=1.01
compound="O=c1[nH]c(=O)n(C2C[C@@H](O)[C@@H](CO)O2)cc1F (stereo partly specified)" observed=0.982

Given Nc1ncnc2c1ncn2[C@@H]1O[C@H](CO)[C@@H](O)[C@H]1O , state its recorded normalized growth.
0.982

Given CN1C(CC(=O)c2ccccc2)CCCC1CC(O)c1ccccc1 (stereo unspecified) , state its recorded normalized growth.
0.973
